experiment: in vivo; conditions: male, C57BL6/j, mouse, iv, 20 mg/kg, Brain-Plasma Concentration Ratio, Mean
PROPERTY_NAME: Kp at 4 h
No unit in the answer, only the number.

Field Kp at 4 h (entry CC(C)Oc1ccc(CN2CCNCC2)cc1-n1c(CN2CCN(C(=O)COc3ccc(Cl)cc3)CC2)nc2ccccc2c1=O [PE] ) reads 0.13

* * *

assay: in vivo; conditions: male, C57BL6/j, mouse, iv, 20 mg/kg, Brain Concentration, Mean
PROPERTY_NAME: concentration at 1 h

// sample CC(C)Oc1ccc(CN2CCNCC2)cc1-n1c(CN2CCN(C(=O)COc3ccc(Cl)cc3)CC2)nc2ccccc2c1=O [PE] , its concentration at 1 h was 85.5 ng/g

* * *

test system: BJeLR cells; assay: RSL testing: growth inhibition (alamar blue) in BJeLR cells; assay type: cell-based; conditions: Homo sapiens, BJeLR; read-out: EC50 (BJeLR)
Quick reference for pEC50 among some molecules
// field semantics: pEC50 = negative decimal log of concentration (mol/L)

# example entries with known answers
{"MOLECULE": "CC(C)Oc1ccc(N2CCN(C)CC2)cc1-n1c(CN2CCN(C(=O)COc3ccc(Cl)cc3)CC2)nc2ccccc2c1=O [Compound 17]", "PROPERTY_NAME": "pEC50", "ASSAY_RESULT": 6.05}
{"MOLECULE": "CC(C)Oc1ccc(CN(C)CCC#N)cc1-n1c(CN2CCN(C(=O)COc3ccc(Cl)cc3)CC2)nc2ccccc2c1=O [Compound 19]", "PROPERTY_NAME": "pEC50", "ASSAY_RESULT": 6.59}
{"MOLECULE": "CC(C)Oc1ccc(CNCCCN(C)C)cc1-n1c(CN2CCN(C(=O)COc3ccc(Cl)cc3)CC2)nc2ccccc2c1=O [Compound 22]", "PROPERTY_NAME": "pEC50", "ASSAY_RESULT": 5.64}
{"MOLECULE": "CC(C)Oc1ccc(CN(C)CCO)cc1-n1c(CN2CCN(C(=O)COc3ccc(Cl)cc3)CC2)nc2ccccc2c1=O [Compound 21]", "PROPERTY_NAME": "pEC50", "ASSAY_RESULT": 6.44}
{"MOLECULE": "CCN(CC)Cc1ccc(OC(C)C)c(-n2c(CN3CCN(C(=O)COc4ccc(Cl)cc4)CC3)nc3ccccc3c2=O)c1 [Compound 15]", "PROPERTY_NAME": "pEC50", "ASSAY_RESULT": 5.77}

Next:
Record summary for CC(C)Oc1ccc(CN2CCN(CCO)CC2)cc1-n1c(CN2CCN(C(=O)COc3ccc(Cl)cc3)CC2)nc2ccccc2c1=O [Compound 23] : reported pEC50 = 5.92

* * *

assay: Plasma pharmacokinetics after single IV and PO dose; assay type: in vivo, male C57BL6/j mice; settings: male, C57BL6/j, mouse, plasma, iv, 20 mg/kg, IV 20 mg/kg, 0.5 hr
PROPERTY_NAME: concentration at 0.5 hr (ng/mL)
The answer is to be given in ng/mL; state only the numeric part.

Recorded result, CC(C)Oc1ccc(CN2CCNCC2)cc1-n1c(CN2CCN(C(=O)COc3ccc(Cl)cc3)CC2)nc2ccccc2c1=O , concentration at 0.5 hr: 3220

* * *

test: in vivo; conditions: male, C57BL6/j, mouse, po, 20 mg/kg, Brain Concentration, Mean
PROPERTY_NAME: concentration at 4 h (ng/g)
Unit ng/g implied. Number only.

In plain terms, CC(C)Oc1ccc(CN2CCNCC2)cc1-n1c(CN2CCN(C(=O)COc3ccc(Cl)cc3)CC2)nc2ccccc2c1=O has a documented concentration at 4 h of 15.6

* * *

assay: Plasma pharmacokinetics after single IV and PO dose; assay type: in vivo, male C57BL6/j mice; conditions: male, C57BL6/j, mouse; plasma, PO 20 mg/kg
PROPERTY_NAME: Cmax (ng/mL)
Please state the figure in ng/mL; there is no need to write the unit.

Per the record, CC(C)Oc1ccc(CN2CCNCC2)cc1-n1c(CN2CCN(C(=O)COc3ccc(Cl)cc3)CC2)nc2ccccc2c1=O has Cmax of 1390

* * *

test: in vivo; conditions: male, C57BL6/j, mouse, iv, 20 mg/kg, Brain-Plasma Concentration Ratio, Mean
PROPERTY_NAME: Kp at 2 h

Reported Kp at 2 h of CC(C)Oc1ccc(CN2CCNCC2)cc1-n1c(CN2CCN(C(=O)COc3ccc(Cl)cc3)CC2)nc2ccccc2c1=O [PE] : 0.07

* * *

experiment: Plasma pharmacokinetics after single IV and PO dose; type: in vivo, male C57BL6/j mice; conditions: male, C57BL6/j, mouse, plasma, iv, 20 mg/kg, plasma, IV 20 mg/kg; read-out: volume of distribution at terminal phase
PROPERTY_NAME: Vd (L/kg)
Output spec: scalar in L/kg, unitless text.

For record CC(C)Oc1ccc(CN2CCNCC2)cc1-n1c(CN2CCN(C(=O)COc3ccc(Cl)cc3)CC2)nc2ccccc2c1=O the listed Vd is 9.63

* * *

test: in vivo; settings: male, C57BL6/j, mouse, po, 20 mg/kg, Brain-Plasma Concentration Ratio, individual mice
PROPERTY_NAME: Kp at 4 hr
Answer using only a numeral; do not append any unit.

Value of measured Kp at 4 hr for the entry CC(C)Oc1ccc(CN2CCNCC2)cc1-n1c(CN2CCN(C(=O)COc3ccc(Cl)cc3)CC2)nc2ccccc2c1=O : 0.02

* * *

Assay: Plasma pharmacokinetics after single IV and PO dose
Type: in vivo, male C57BL6/j mice
Settings: male, C57BL6/j, mouse, plasma, po, 20 mg/kg, PO 20 mg/kg, 4 hr; read-out: Plasma Concentration, Mean
Protocol: Three mice in each group were used for blood collection at each time point. Blood samples (approximately 400 μL) were collected after euthanasia using carbon dioxide inhalation via cardiac puncture pre-dose and 30 minutes, 1 hour, 2 hours, 4 hours, 8 hours and 12 hours post-dose. Blood samples were placed into tubes containing sodium heparin and centrifuged at 8000 rpm for 6 minutes at 4° C. to separate plasma from the blood samples. […]
PROPERTY_NAME: concentration at 4 hr (ng/mL)
The response must be a number in ng/mL with no trailing unit.

Reported concentration at 4 hr ( CC(C)Oc1ccc(CN2CCNCC2)cc1-n1c(CN2CCN(C(=O)COc3ccc(Cl)cc3)CC2)nc2ccccc2c1=O ) = 696

* * *

test: in vivo; conditions: male, C57BL6/j, mouse, iv, 20 mg/kg, Brain-Plasma Concentration Ratio, individual mice
PROPERTY_NAME: Kp at 4 h
API note: the answer field is a bare number with no unit suffix.

Kp at 4 h in this record for CC(C)Oc1ccc(CN2CCNCC2)cc1-n1c(CN2CCN(C(=O)COc3ccc(Cl)cc3)CC2)nc2ccccc2c1=O [PE] : 0.17

* * *

Assay: Plasma pharmacokinetics after single IV and PO dose
Assay type: in vivo, male C57BL6/j mice
Details: male, C57BL6/j, mouse, plasma, po, 20 mg/kg, PO 20 mg/kg, 4 hr; read-out: Plasma Concentration, individual mice
Protocol: Three mice in each group were used for blood collection at each time point. Blood samples (approximately 400 μL) were collected after euthanasia using carbon dioxide inhalation via cardiac puncture pre-dose and 30 minutes, 1 hour, 2 hours, 4 hours, 8 hours and 12 hours post-dose. Blood samples were placed into tubes containing sodium heparin and centrifuged at 8000 rpm for 6 minutes at 4° C. to separate plasma from the blood samples. […]
PROPERTY_NAME: concentration at 4 hr (ng/mL)
Express your answer in ng/mL, writing the number without its unit.

Lookup result for CC(C)Oc1ccc(CN2CCNCC2)cc1-n1c(CN2CCN(C(=O)COc3ccc(Cl)cc3)CC2)nc2ccccc2c1=O [PE] ; measured concentration at 4 hr: 777

* * *

assay: in vivo; details: male, C57BL6/j, mouse, iv, 20 mg/kg, Brain-Plasma Concentration Ratio, individual mice
PROPERTY_NAME: Kp at 2 h
Answer field: number only, no words.

molecule CC(C)Oc1ccc(CN2CCNCC2)cc1-n1c(CN2CCN(C(=O)COc3ccc(Cl)cc3)CC2)nc2ccccc2c1=O , Kp at 2 h observed: 0.09

* * *

test system: BJeH, BJeHLT, BJeLR and DRD cells; format: cell-based; conditions: EC50 (BJeH)/EC50 (BJeLR)
We begin with a simple list: items and their reported Selectivity score.

Known results for compounds:
{"SMILES_CODE": "CC(C)Oc1ccc(N2CCN(C)CC2)cc1-n1c(CN2CCN(C(=O)COc3ccc(Cl)cc3)CC2)nc2ccccc2c1=O", "ASSAY_RESULT": 7.3}
{"SMILES_CODE": "CC(C)Oc1ccc(CN2CCN(CCO)CC2)cc1-n1c(CN2CCN(C(=O)COc3ccc(Cl)cc3)CC2)nc2ccccc2c1=O", "ASSAY_RESULT": 2.8}
{"SMILES_CODE": "CC(C)Oc1ccc(CN(C)CCC#N)cc1-n1c(CN2CCN(C(=O)COc3ccc(Cl)cc3)CC2)nc2ccccc2c1=O", "ASSAY_RESULT": 5.1}

Now consider a different compound.
Selectivity score in this record for CC(C)Oc1ccc(CNCCOCCO)cc1-n1c(CN2CCN(C(=O)COc3ccc(Cl)cc3)CC2)nc2ccccc2c1=O : 2.5
